# IC50 listing for each entry below
molecular target: recombinant human adrenergic beta 1 receptors (Homo sapiens, UniProt P08588); construct: purchased Euroscreen; assay: Adrenergic β1 selectivity assay, inhibition of [125I]-Iodocyanopindolol binding; details: membranes, [125I]-Iodocyanopindolol; read-out: β1 bind pIC50 (converted)
Sequence (P08588 whole entry): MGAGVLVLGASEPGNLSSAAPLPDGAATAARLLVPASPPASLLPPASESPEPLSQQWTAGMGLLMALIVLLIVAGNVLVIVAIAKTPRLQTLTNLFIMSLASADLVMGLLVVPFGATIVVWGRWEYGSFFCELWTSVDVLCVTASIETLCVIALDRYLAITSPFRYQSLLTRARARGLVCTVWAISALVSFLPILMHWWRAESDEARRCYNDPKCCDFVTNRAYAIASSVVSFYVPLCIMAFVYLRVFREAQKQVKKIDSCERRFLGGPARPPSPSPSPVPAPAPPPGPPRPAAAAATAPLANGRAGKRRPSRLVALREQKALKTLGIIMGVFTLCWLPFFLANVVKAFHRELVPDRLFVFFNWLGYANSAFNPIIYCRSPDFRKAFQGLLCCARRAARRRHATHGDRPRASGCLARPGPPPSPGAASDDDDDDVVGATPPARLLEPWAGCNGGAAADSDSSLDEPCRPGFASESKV
Where a name gives a salt, the structure may show the parent alone.
In your response, the unit should come after the numeric value.

QUERY: Recorded IC50 of C[C@@H](CNCCCSCCNC[C@H](O)c1ccc(O)c2[nH]c(=O)sc12)c1ccccc1 [Example 46, dihydrochloride] , please.
RESULT: 79.4 nM

QUERY: Form field: reported IC50 of "O=c1[nH]c2c(O)ccc([C@@H](O)CNCCSCCCNCCc3cccc(C(F)(F)F)c3)c2s1"
RESULT: 100 nM

QUERY: Return reported IC50; argument: Cl.O=c1[nH]c2c(O)ccc([C@@H](O)CNCCSCCCNCCc3ccccc3)c2s1 [Example 11, hydrochloride]
RESULT: 251 nM

QUERY: Given the entry CC(CNCCCSCCNC[C@H](O)c1ccc(O)c2[nH]c(=O)sc12)c1ccccc1 (mixture of isomers) [Example 44, dihydrochloride] , report its measured IC50.
RESULT: 79.4 nM

QUERY: Using the record for "C[C@H](CNCCSCCCNC[C@H](O)c1ccc(O)c2[nH]c(=O)sc12)c1ccccc1" , report its IC50.
RESULT: 25.1 nM

QUERY: Report IC50 for C[C@H](CNCCCSCCNC[C@H](O)c1ccc(O)c2[nH]c(=O)sc12)c1ccccc1 [Example 48, dihydrochloride] please.
RESULT: 158 nM
